# Tested on: cellular dehydrogenase activity
# CONDITIONS: composite Z-score vs mock-treated (DMSO) wells; concentration of each compound in μM
Quick rule for you: MTT under -1 gets 1.0, anything else gets 0.0.

Look over these answered cases.
{"columns": ["COMPOUND", "LABEL_CLASS"],
 "data": [
  ["C[C@@H]1NCCc2cc(O)c(O)cc21 [salsolinol]", 1.0],
  ["CCOC(=O)[C@H](CCc1ccccc1)N[C@@H](C)C(=O)N1[C@H](C(=O)O)C[C@H]2CCCC[C@@H]21 [trandoapril]", 0.0],
  ["c1ccc2c3c([nH]c2c1)[C@H]1[C@H]2CC[C@H]([C@@H]4CCCN[C@@H]42)N1CC3 [nitrarine]", 1.0]
]}

We next turn to a different compound, shown below.
Problem: For the compound COc1ccc([C@H]2COc3c(ccc(O)c3OC)C2)c(OC)c1O [(−)-duartin] , is MTT under -1?
0.0

====

GE-HTS: recorded values
# System: OXPHOS gene expression
# Type: cell-based, mouse
# CONDITIONS: composite Z-score vs DMSO; Conc 20 μM
Kindly provide the number alone.

Solved cases below.
{"columns": ["COMPOUND", "GE-HTS"],
 "data": [
  ["CN[C@@H]1[C@@H](O[C@H]2O[C@H](CO)[C@@H](N)[C@H](O)[C@H]2O)OC2C[C@@H](N)[C@@H](O[C@H]3[C@H](O)[C@@H](O)[C@H](N)C[C@@H]3N)OC2[C@@H]1O (stereo partly shown) [apramycin]", 0.477],
  ["CO/N=C(\\C(=O)N[C@@H]1C(=O)N2C(C(=O)O)=C(COC(C)=O)CS[C@H]12)c1csc(N)n1 [cefotaxime]", "−0.379"],
  ["CC(C)[C@@H](C)/C=C/[C@@H](C)[C@H]1CC[C@H]2C3=CC=C4C[C@@H](O)CC[C@]4(C)[C@H]3CC[C@]12C [ergosterol]", 0.231]
]}

Param item: CC(=O)OCC(=O)[C@@]1(O)[C@H](C)C[C@H]2[C@@H]3CCC4=CC(=O)C=C[C@]4(C)[C@@]3(F)[C@@H](O)C[C@@]21C [dexamethasone acetate] ; param system: OXPHOS gene expression; output GE-HTS: 0.461

# value of GE-HTS, OXPHOS gene expression, item COc1ccc(-c2coc3c(O)c(OC)ccc3c2=O)cc1 [retusin 7-methyl ether] = 0.788

Entry CC1(C)[C@@H](O[C@H]2O[C@H](C(=O)O)[C@@H](O)[C@H](O)[C@H]2O[C@@H]2O[C@H](C(=O)O)[C@@H](O)[C@H](O)[C@H]2O)CC[C@]2(C)[C@H]3C(=O)C=C4[C@@H]5C[C@@](C)(C(=O)O)CC[C@]5(C)CC[C@@]4(C)[C@]3(C)CC[C@@H]12 [glycyrrhizic acid] : GE-HTS on OXPHOS gene expression = −0.424

GET /values?item= O=C(O)/C=C/C=C/c1ccccc1 [juarezic acid] &system= OXPHOS gene expression returns GE-HTS: −0.147

====

# Tested on: mtOXPHOS transcripts
# Assay type: cell-based, mouse
MEASURED_PROPERTY: mitoOX

Worked set:
{"columns": ["COMPOUND", "mitoOX"],
 "data": [
  ["CC[C@H](C)[C@H](NC)C(=O)O", 0.850],
  ["C[N+](C)(C)CC(=O)O", 0.604],
  ["NS(=O)(=O)c1cc(C2(O)NC(=O)c3ccccc32)ccc1Cl (stereo not shown)", "−0.641"],
  ["NCCS", "−1.294"],
  ["CC(N/C(=N\\C#N)Nc1ccncc1)C(C)(C)C (stereo not shown)", "−0.498"],
  ["Oc1cccc2cccnc12", 0.435]
]}

Reported mitoOX for N[C@@H](C(=O)N[C@@H]1C(=O)N2C(C(=O)O)=C(Cl)CS[C@H]12)c1ccccc1 was −0.161
